Biological target: Human UII receptor, 6D9 human rhabdomyosarcoma cells (Homo sapiens, UniProt Q9UKP6)
Construct: 6D9: isolated by dilution subcloning of RMS13 cells, ATCC® Number: CRL-2061
Sequence (Q9UKP6 whole entry): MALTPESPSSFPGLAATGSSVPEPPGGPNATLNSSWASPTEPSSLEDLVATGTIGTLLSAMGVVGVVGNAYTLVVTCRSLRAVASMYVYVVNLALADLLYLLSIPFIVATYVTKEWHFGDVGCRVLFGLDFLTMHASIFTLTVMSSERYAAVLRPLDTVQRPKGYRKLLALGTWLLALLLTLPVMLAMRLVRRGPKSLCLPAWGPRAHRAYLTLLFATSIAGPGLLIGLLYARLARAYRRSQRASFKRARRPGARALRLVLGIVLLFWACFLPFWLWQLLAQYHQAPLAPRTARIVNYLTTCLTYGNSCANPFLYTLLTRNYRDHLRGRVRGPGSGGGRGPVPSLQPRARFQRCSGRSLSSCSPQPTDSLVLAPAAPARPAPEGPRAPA
Assay: Human UII Calcium Mobilization Assay
Conditions: average value, FLIPR TETRA, read-out: Human UII Ca^+ Mobilization Average IC50
Listed molecules paired with reported IC50

molecule: COc1ccc([C@@H](CCCNS(=O)(=O)c2cccs2)N2C(=O)c3cccc(N4CCN(C(C)C)CC4)c3C2=O)cc1OC
lt-gt-eq: =
IC50 [nM]: 150
//
molecule: COc1ccc(C(CCCNS(=O)(=O)c2cccc3cccnc23)N2C(=O)c3cccc(N4CCN([C@H](C)c5ccccc5)CC4)c3C2=O)cc1OC (stereo partly drawn)
lt-gt-eq: =
IC50 [nM]: 300
//
molecule: COc1ccc(C(CCCNS(=O)(=O)Cc2ccccc2)N2C(=O)c3cccc(N4CCN([C@H](C)c5ccccc5)CC4)c3C2=O)cc1OC (stereo partly drawn)
lt-gt-eq: =
IC50 [nM]: 700
//
molecule: COc1ccc(C(CCCNS(=O)(=O)c2ccccn2)N2C(=O)c3cccc(N4CCN([C@H](C)c5ccccc5)CC4)c3C2=O)cc1OC (stereo partly drawn)
lt-gt-eq: =
IC50 [nM]: 440
//
molecule: COc1ccc([C@@H](CCCNC(=O)c2cn[nH]c2)N2C(=O)c3cccc(N4CCN([C@H](C)c5ccccc5)CC4)c3C2=O)cc1OC
lt-gt-eq: =
IC50 [nM]: 290
//
molecule: COC(=O)c1csc(S(=O)(=O)NCCCC(c2ccc(OC)c(OC)c2)N2C(=O)c3cccc(N4CCN([C@H](C)c5ccccc5)CC4)c3C2=O)c1OC (stereo partly drawn)
lt-gt-eq: >
IC50 [nM]: 3000
